Measured composite z-score of individual entries
# PROTOCOL NOTES: binders of probe aHhip on microarray, primary screen, stem cell growth factor project, biochemical, small-molecule microarray, fluorescence 635/667 (AID 1087);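 also: score merges spot fluorescence at 667nm with spot signal to noise ratio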
# MEASUREMENT SETUP: higher = more signal
Keep it simple and answer with nothing but the number.

Solved cases below.
CO[C@H]1COC(=O)[C@H](C)COC(=O)[C@@H](OCc2ccccc2)C=C[C@@H]1C: 0.449
CCCNC(=O)OC[C@H]1O[C@H](CCON=C[C@@H](C)[C@H](OCc2ccccc2)C(C)C)C=C[C@@H]1Oc1ccc(OC)cc1: -0.0346
CCOC(=O)[C@H](CC(C)C)NC(=O)CCC1CC(OC(=O)NCCc2ccc(F)cc2)CC2(CCCC(COC(=O)NCc3cccc4ccccc34)O2)O1 (stereo partly specified): -0.134
CCOC(=O)CCN1C(=O)[C@H]2[C@H]3[C@H](O)[C@H](O)CC(=NOCC=C(C)CCC=C(C)C)[C@H]3CC[C@H]2C1=O: 0.0722
COc1ccc(O[C@H]2C=C[C@@H](c3ccccc3)O[C@@H]2CON=C(C)CCN2CCCc3nc(C)c(C)cc32)cc1: -0.0328
CCOC(=O)[C@H](CC(C)C)NC(=O)CCC1CC(OC(=O)NCc2ccc3c(c2)OCO3)CC2(CCCC(COC(=O)NCCc3ccc(Cl)cc3)O2)O1 (stereo partly specified): -0.0237
CC(C)=NOC(C)CN1CCCCc2nc(C)c(C)cc21 (stereo unspecified): 0.0695
CC1(C)O[C@H]2O[C@H]([C@H](O)CON=C3[C@H]4CCn5c(=O)n(-c6ccccc6)c(=O)n5[C@H]4[C@H](O)[C@@H]4O[C@H]34)[C@H](O)[C@H]2O1: -0.0994

Task: Recorded composite z-score for CC(C)CN1CCc2nc(-c3ccccc3)c3c(c2C1)CO[C@@H](C)C3 , please?
Output: -0.16

Task: Same lookup for COC(=O)CC=C1c2ccccc2[C@H](OC)[C@H]1C , please.
Output: -0.0296

Task: Another compound: COC(=O)CC=C[C@@H](C)[C@@H](C=NOC(C)CN1CCCCc2nc(C)c(C)cc21)OC (stereo partly specified)
Output: -0.206

Task: # repeat for C[C@@H]1C=CCC(=O)OC[C@H](C)C(=O)N[C@@H](Cc2ccccc2)C(=O)OC1
Output: 0.605

Task: And then CC(=O)OC[C@H]1O[C@H](CC=NOC[C@@H](O)[C@H]2O[C@@H]3OC(C)(C)O[C@@H]3[C@H]2O)C=C[C@@H]1OC(C)=O , what is it?
Output: -0.0844

Task: Entry to check: CC(C)=CCCC(C)=CCON=C1C[C@@H](O)[C@@H](O)[C@@H]2[C@@H]3C(=O)N(Cc4ccc5c(c4)OCO5)C(=O)[C@@H]3CC[C@H]12
Output: -0.272

Task: How about CCOC(=O)[C@H](Cc1ccccc1)NC(=O)CCC1CC(OC(=O)NCCc2ccc(F)cc2)CC2(CCCC(COC(=O)NCc3cccc(C(F)(F)F)c3)O2)O1 (stereo partly specified) ?
Output: -0.121

Task: Please answer likewise for CO[C@H]1COC(=O)[C@H](C)COC(=O)[C@H](C)NC(=O)CC=C[C@H]1C
Output: 0.124

###

# PROTOCOL NOTES: small-molecule microarray binders of probe aEGFR, primary screen, biochemical, biotinylated probe, 635/667 nm fluorescence (AID 1097);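 also: probe is a biotinylated anti-EGFR antibody binding compounds printed on slides; score combines fluorescence near 667 nm and signal to noise of each spot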
# MEASUREMENT SETUP: higher = more signal
READOUT KIND: composite z-score
Number, no unit, nothing else.

C=CC[C@@H]1C=C[C@H](ON=CC[C@@H]2C=C[C@H](OC(C)=O)[C@@H](COC(C)=O)O2)[C@@H](CO)O1: 0.169
CC(CCC(=O)OC[C@H]1O[C@H](C#Cc2ccccc2)C=C[C@@H]1Oc1ccc(C)cc1)=NO[C@H](C)c1cn([C@@H]2COC[C@H]2O)nn1: -0.137
CCOC(=O)[C@H](CC(C)C)NC(=O)CCC1CC(OC(=O)NCc2ccc3c(c2)OCO3)CC2(CCCC(COC(=O)NCCc3ccc(Cl)cc3)O2)O1 (stereo not given in full): 0.065

Task: Item COC(=O)[C@@H]1CC[C@H](C)[C@@H](c2ccc(Br)cc2)N1C[C@H](O)CN=[N+]=[N-] has what recorded composite z-score?
Output: -0.139

Task: Cool, now C#CCCCON=C1[C@H]2CCn3c(=O)n([C@@H](CC)c4ccccc4)c(=O)n3[C@H]2[C@H](O)[C@@H]2O[C@H]12
Output: -0.042

Task: For COCC#Cc1ccc([C@@H]2N[C@H](C(=O)O)CC[C@H]2C)cc1 then?
Output: -0.0953

Source of measurements: PubChem BioAssay
